// values below are reported Kd
# target-entity: T1, human LRRC33-proTGFβ1 complex (human, UniProt Q86YC3 19-650; P01137 30-390)
# T1 construct: also called hLRRC33-proTGFβ1; hLRRC33
# T1 sequence (Q86YC3 other isoform, or with tags, fused parts or gaps limits assumed, chain 1 of 2): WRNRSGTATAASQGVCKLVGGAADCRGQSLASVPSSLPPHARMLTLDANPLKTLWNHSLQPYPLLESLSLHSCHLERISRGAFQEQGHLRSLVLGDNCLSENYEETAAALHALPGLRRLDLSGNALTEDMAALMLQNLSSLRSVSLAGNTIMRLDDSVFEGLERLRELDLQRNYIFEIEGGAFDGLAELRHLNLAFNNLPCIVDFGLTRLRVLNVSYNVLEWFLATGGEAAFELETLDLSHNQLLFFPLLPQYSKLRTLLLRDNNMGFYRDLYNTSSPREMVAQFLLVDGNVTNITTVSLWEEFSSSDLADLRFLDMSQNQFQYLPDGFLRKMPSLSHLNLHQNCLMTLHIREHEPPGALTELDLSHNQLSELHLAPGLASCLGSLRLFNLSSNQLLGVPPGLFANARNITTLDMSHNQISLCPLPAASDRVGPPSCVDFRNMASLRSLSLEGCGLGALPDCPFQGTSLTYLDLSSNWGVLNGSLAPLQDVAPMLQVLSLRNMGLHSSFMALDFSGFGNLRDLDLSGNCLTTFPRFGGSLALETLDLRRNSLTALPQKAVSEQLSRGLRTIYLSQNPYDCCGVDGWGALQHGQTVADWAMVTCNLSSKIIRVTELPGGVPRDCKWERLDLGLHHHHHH
# T1 sequence (P01137 30-390 limits assumed, chain 2 of 2): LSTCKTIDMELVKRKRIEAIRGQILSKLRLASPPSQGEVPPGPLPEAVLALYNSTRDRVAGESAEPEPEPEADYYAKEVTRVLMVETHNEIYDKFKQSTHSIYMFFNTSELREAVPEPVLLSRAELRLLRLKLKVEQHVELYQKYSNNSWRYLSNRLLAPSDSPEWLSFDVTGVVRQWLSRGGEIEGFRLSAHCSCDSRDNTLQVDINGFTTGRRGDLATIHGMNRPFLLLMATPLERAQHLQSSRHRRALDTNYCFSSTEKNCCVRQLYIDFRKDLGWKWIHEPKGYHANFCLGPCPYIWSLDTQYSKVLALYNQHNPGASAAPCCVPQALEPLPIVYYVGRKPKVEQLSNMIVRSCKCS
# assay-remarks: MSD-SET, solution equilibrium titration

As a guide, the following entries are already answered.
[
  {
    "binder": "Ab20 (antibody, IgG4, V domains shown) VH: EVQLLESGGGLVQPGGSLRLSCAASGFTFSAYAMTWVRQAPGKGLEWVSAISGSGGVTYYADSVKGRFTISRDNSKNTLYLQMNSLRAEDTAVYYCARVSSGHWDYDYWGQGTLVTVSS VL: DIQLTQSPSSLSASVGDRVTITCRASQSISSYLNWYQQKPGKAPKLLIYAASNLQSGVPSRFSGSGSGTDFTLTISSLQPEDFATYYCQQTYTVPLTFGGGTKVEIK",
    "assay-result": "1.6 nM"
  },
  {
    "binder": "Ab2 (antibody, human IgG4 S228P, kappa, V domains shown) VH: EVQLLESGGGLVQPGGSLRLSCAASGFTFADYAMTWVRQAPGKGLEWVSAISGSGAATYFADSVKGRFTISRDNSKNTLYLQMNSLRAEDTAVYYCARVSSGHWDFDYWGQGTLVTVSS VL: DIQLTQSPSSLSASVGDRVTITCRASQSISSYLNWYQQKPGKAPKLLIYAASNLQSGVPSRFSGSGSGTDFTLTISSLQPEDFATYYCQQTYTVPLTFGGGTKVEIKR",
    "assay-result": "3.2 nM"
  },
  {
    "binder": "Ab19 (antibody, IgG4, V domains shown) VH: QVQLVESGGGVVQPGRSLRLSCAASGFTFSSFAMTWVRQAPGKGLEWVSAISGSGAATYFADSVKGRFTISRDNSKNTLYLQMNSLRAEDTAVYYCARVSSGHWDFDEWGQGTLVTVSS VL: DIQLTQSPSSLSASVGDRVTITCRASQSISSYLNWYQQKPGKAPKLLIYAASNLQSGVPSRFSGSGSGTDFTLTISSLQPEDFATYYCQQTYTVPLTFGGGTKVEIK",
    "assay-result": "5.7 nM"
  },
  {
    "binder": "Ab12 (antibody, IgG4, V domains shown) VH: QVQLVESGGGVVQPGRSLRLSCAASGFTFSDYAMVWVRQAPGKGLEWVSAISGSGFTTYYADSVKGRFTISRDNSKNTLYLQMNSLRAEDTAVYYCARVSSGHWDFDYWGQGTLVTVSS VL: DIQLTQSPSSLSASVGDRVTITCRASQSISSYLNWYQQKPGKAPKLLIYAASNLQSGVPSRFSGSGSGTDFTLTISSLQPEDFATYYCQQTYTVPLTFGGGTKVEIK",
    "assay-result": "3.2 nM"
  }
]

Please examine the following record next.
Challenge: Which Kd is listed for Ab30 (antibody, IgG4, V domains shown) VH: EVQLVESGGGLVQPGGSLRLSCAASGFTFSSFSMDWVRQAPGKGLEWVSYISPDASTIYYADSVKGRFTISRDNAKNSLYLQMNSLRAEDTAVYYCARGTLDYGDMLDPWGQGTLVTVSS VL: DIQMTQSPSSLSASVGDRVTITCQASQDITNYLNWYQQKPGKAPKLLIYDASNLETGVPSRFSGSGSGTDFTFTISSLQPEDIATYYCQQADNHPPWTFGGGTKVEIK ?
Response given: 0.14 nM
